Assay: yeast display, Sf9 membrane polyspecificity reagent, FACS + sequencing; frameworks hold sequencing errors
measurement type: polyreactivity (PSR sort gate)

[
  {
    "sequence input": "QVQLVESGGGLVQAGGSLSLTCDAYGRTIYKYGMGWYREAPGKERDLVARINSNGGSTYYADSVKGRFTISRDNAKNTVYLELISLKPEDTAVYYCARSYVRSYGYYYWGQGTQVTVSS",
    "measurement type": "polyreactivity (PSR sort gate)",
    "result": "low polyreactivity"
  },
  {
    "sequence input": "QVQLVESGGGLVQAGGSLRLSCAASGFIFQTNVMGWYRQAPGKERELVAAISSGDSTYYADSVKGRFTISRDNAKNTVYLQMNSLKPEDTAVYYCAADSIRTLLTGNTVYIWYGYWGQGTQVTVSS",
    "measurement type": "polyreactivity (PSR sort gate)",
    "result": "low polyreactivity"
  },
  {
    "sequence input": "QVQLVESGGCLVQAGGSLRLSCAASGRIFRDKAMGWYRQAPGKEREFVARITISTGTTYYADSVKGRFTISRDNAKNTGYLQKNSLKPADTAVYYCAALYTDSYLTSPVSYRYDYWGQGTQVSVSS",
    "measurement type": "polyreactivity (PSR sort gate)",
    "result": "low polyreactivity"
  },
  {
    "sequence input": "QVQLVESGGGLDQAGGSLRLSCASSGIIFWWNTMGGYRQAPGQESEMVAAISTGGSTNYADSVKGRFTISRDNAKNTVYLQMNSLKPEDTAVYYCNADWTDGDWADMDYWGQGTQVTVSS",
    "measurement type": "polyreactivity (PSR sort gate)",
    "result": "low polyreactivity"
  },
  {
    "sequence input": "QVQLVESGGGLVQSGGILRLSCAASGGTFYANAMGWYRQAPGKERELVAAITSGGSTNYADSVKRRFTISRDNAKNTVSLQMNSLKPEDTAVYYCNASAQRRYWHSYFRRYDYWGQGTQVTVSS",
    "measurement type": "polyreactivity (PSR sort gate)",
    "result": "low polyreactivity"
  },
  {
    "sequence input": "QVQLVESGGGLVQAGGSLRLSCAASGSTFLSYAMGWYRQAPGHERELVAAISIAGSTYYADSVKGRFTISRANAKNTVYLQMHSLKPEDTAVDYCRRYYRIYDYWGQGTQVTVSS",
    "measurement type": "polyreactivity (PSR sort gate)",
    "result": "low polyreactivity"
  },
  {
    "sequence input": "QVQLVESGGGLVQAGGSLRLSCAASGFTFLVYAMGWYRQAPGKERELVAAITWSGDSTYYADSVKGRFTISRDNAKNTVYLQMNSLKPEDTAVYYCAAAYRYGTLYYYWGQGTQVTVSS",
    "measurement type": "polyreactivity (PSR sort gate)",
    "result": "low polyreactivity"
  },
  {
    "sequence input": "QVQLVESGGGLVQAGGSLRLSCAASGFTFWGYGMGWYRQAPGKERELVAAISGSGGSTYYADSVKGRFTISRDNAKNTVYLQMNSLKPEDTAVYYCNKATQFYQWGASPYYPRRDYWGQGTQVTVSS",
    "measurement type": "polyreactivity (PSR sort gate)",
    "result": "low polyreactivity"
  },
  {
    "sequence input": "QVQLVESGGGLVQAGGSLRLSCAASGYTFRYYAMGWYRQAHGKERELVDDINSGDITNYADSVKGRFTISRDNAKYTVYLQMNSLKTEDTAVYYCARRTFSLYDYWGQGTQVTVSS",
    "measurement type": "polyreactivity (PSR sort gate)",
    "result": "low polyreactivity"
  },
  {
    "sequence input": "QVHLVESGGGLVQAGGSLRLSCAASGSTLYRYAMGWYRQAPGKERELVATITRSGGSTYYADSVKGRFTISRDNAKNTVYLQINSLKPEDTAVYYCDAYRKVGGFSRGDYWGQGTKVTVSS",
    "measurement type": "polyreactivity (PSR sort gate)",
    "result": "high polyreactivity"
  },
  {
    "sequence input": "QVQLVESGGGLVQAGGSLRLSCAASGSTFYVNAMGWYRQAPGTERELVAAIRSAGRTNYADSVKGRFTSSRDNAKNTVYLQMNSLKPEDTAVYYCAAEVPHWPYYGRLHDRDYWGQGTQVTVSS",
    "measurement type": "polyreactivity (PSR sort gate)",
    "result": "low polyreactivity"
  },
  {
    "sequence input": "QVQLVESGGGLVQAGGSLRLSCAASGLTFSNYAMGWYRQAPGKEREFVAAISASGGSTYYAHSVKGRFTISRDYAKNTVYLQMNRLTPEDTAVYYCAASTTRPVYPANDDYWGQGTQVTVSS",
    "measurement type": "polyreactivity (PSR sort gate)",
    "result": "low polyreactivity"
  },
  {
    "sequence input": "QVQLVESGGGLVQAGGSLRLSCAAYGRIFLLYAMGWYRQAPGKERELVAGISIGGSTNYADSVKGRFTISRDNAKNTVYVQMNSLKPEDTAVYYCNAKRYFASRKNGYYYWGQGTQVTVSS",
    "measurement type": "polyreactivity (PSR sort gate)",
    "result": "high polyreactivity"
  },
  {
    "sequence input": "QVQLVESGGGLVHAGGSLRLSCAASGRIFVRNDMGCYRQAPGKERELVAAISWDGGSTYYADSVKGRFTISRDNAKNTVYLQMNSLKPEDTAVYYCATDATRPWYDYWGQGTQVTVSS",
    "measurement type": "polyreactivity (PSR sort gate)",
    "result": "low polyreactivity"
  },
  {
    "sequence input": "QVQLVESGGGLVQAGGSLRLSCAASGSTFGYNAMGWYRQAPGKERELVAAISYIGGSTYYADSVKGRFTISRDNAKNTVYLQMNSLKPEDTAVYYCNAAVRYYDRTVSPVKFDYWGQGTQVTVSS",
    "measurement type": "polyreactivity (PSR sort gate)",
    "result": "high polyreactivity"
  },
  {
    "sequence input": "QVQLVESGGGLVQAGGSLRLSCAASGFIFKGYAMGWYRQSPGKERELVAVISTSGDRTYYADSVKGRFTISRDNAKNTVYLQMNSLKPEDTAVYYCAAKASPYGGRQKGYDYWGQGTQVTVSS",
    "measurement type": "polyreactivity (PSR sort gate)",
    "result": "high polyreactivity"
  },
  {
    "sequence input": "QVQLVESGGGLVQAGGSLRLSCAASGSTYYNAMGWYIQAPGKERELVAAIRFRSGSTYYADSVKGRFTISRDNAKNTVYLQMNSMKPVDTAVYYCAADNKRSWRYAYNYWGQGTQVTVSS",
    "measurement type": "polyreactivity (PSR sort gate)",
    "result": "high polyreactivity"
  },
  {
    "sequence input": "HVQVVESGGGLVQAGGSLRLSCAASGSTFPANAMGWYRQAPGKERELVAAISSSGGRTYYADSVKGRFTISRDNAQKTVYLQMNSLKPEDTAVYYCAAYGGGGYKYDYWGQGTQVSVSS",
    "measurement type": "polyreactivity (PSR sort gate)",
    "result": "low polyreactivity"
  },
  {
    "sequence input": "QYQLVESGGGLVQAGGSLRLSCAASGRIFLVYVMGWYRQAPGKERELVADITFSGGSTYYADSVKGRFTISRDNEKNNVYLQMNSLKPEYTAVYYCAAATWSFLDYWGQGTQVTVSS",
    "measurement type": "polyreactivity (PSR sort gate)",
    "result": "high polyreactivity"
  },
  {
    "sequence input": "QVQLVESGGGLVQAGGSLRLSCAASGFIFSYYVMGWYRQAPGKERELVASISARVGSTYYADSVKGRFTISRDNAKNTVYLQMNSLKPEDTAVYYCNTARVKYRWYNYWGQGTQVTVSS",
    "measurement type": "polyreactivity (PSR sort gate)",
    "result": "high polyreactivity"
  },
  {
    "sequence input": "QVPLVDSGGGLVQAGGSLRLSCAASGRSYGIYAMGWYIQAPGKERELVASITGRGGSTYYADSVKGRFTISRDNAKNTFYLQKNSLKPDDTAVYFCAARDRPYVHYSGLDYWGQGTQVTVSS",
    "measurement type": "polyreactivity (PSR sort gate)",
    "result": "high polyreactivity"
  }
]

* * *

Assay: yeast display, Sf9 membrane polyspecificity reagent, FACS + sequencing; frameworks hold sequencing errors

[
  {
    "sequence input": "QVQLVESGGGLVQAGGSLRLSCAASGLIFRTYTMGWNRQAPGKERELVAVISTSGGTTYYADSVKGRFTISRDNAKNTVYLQMNSLKPEDTAVYYCAKRYYWKYAEYDYWGQGSQVTVSS",
    "polyreactivity (PSR sort gate)": "high polyreactivity"
  },
  {
    "sequence input": "QVQLVESGGGLVQAGGSLRLSCDASGSIFYDNAKGWYRQAPGKERELVATIRGGGNTYYADSVKGRFTISRDNAKNTVYLQMNSLKPEDTAVNYCAKQSDFPVVPLVYGVYGYDYWGQGTQVTVSS",
    "polyreactivity (PSR sort gate)": "low polyreactivity"
  },
  {
    "sequence input": "QVQLVESGGGLVQAGGSLRLSCAASGLIFYYYAMGWYRQAPGKERELVAAITSDDRTYYADSVKGRFTISRDNAKNTFYLQMNSLKPEDTAVYYCAARYHGYLPQYRKYGYGYWGQGTQVTVSS",
    "polyreactivity (PSR sort gate)": "high polyreactivity"
  },
  {
    "sequence input": "QVQLVESGGGLVQAGGSLRLSCAASGSTFDYYDMGWYRQAPGKERELVATITSGGSTNYADSVKGRFTISRDNAKNNVYLQMNILKTEDTAVFYCASDIGGDGEGYDYWGQGTQVTVSS",
    "polyreactivity (PSR sort gate)": "low polyreactivity"
  },
  {
    "sequence input": "QVQLVESGGGLVQAGGSLRLSCAASGSTFESNTMGWYSQAPGKERELVAAISYSGGRTYYADSVKGRFTISRDNAKNTVYLQMNSLKPEDTAVYYCAARWSVSYQYWGQGTQVTVSS",
    "polyreactivity (PSR sort gate)": "high polyreactivity"
  },
  {
    "sequence input": "QVQLVESGGGLVQAGGSLRLSCAASGSIFAYNDMGWYRQAPGKERELVAAIRNGGRTNYADSVKGRFTISRDNAKNTVYLQMNSLKPEDTAVDYWAALNYYGSDYWGQGTQVTVSS",
    "polyreactivity (PSR sort gate)": "high polyreactivity"
  },
  {
    "sequence input": "QVQLVESCGGLVQAGGSLRLSCAASGSIFYFNAMGWYREAPGKERELVAAINISGSSTSYADSVKGRFTISRDNAKNTVYLQMNSLKPEDTAVYYCAAEDEPRILIVRVWDYYWGQGTQVTVSS",
    "polyreactivity (PSR sort gate)": "low polyreactivity"
  },
  {
    "sequence input": "QVQHGESGGGLVQAGGSLRLTCAASGSIFKYNAMGWYRQAPGKERELDAAISLSGASRSYADSVKGRFTISRVNAKNTVYLQMNSLKPEDTAVYYCNAYYWYYSTRKYYYWGQGTQETVSS",
    "polyreactivity (PSR sort gate)": "high polyreactivity"
  },
  {
    "sequence input": "QVQLQESGGGLVQAGGSLRMSCSASGNIFDADIMGWYRQAPGKERELVASITDGRRTNYADSVKGRYTISRDSEKNTVYLQMNSLKPEDTAVYYCAAIAYPVVPTYFDYDSDYFHWGQGTQVTVSS",
    "polyreactivity (PSR sort gate)": "high polyreactivity"
  },
  {
    "sequence input": "QVQLVESGGGLVQAGGSLRLSCAASGRIFRFYAMGWYRQAPGKERELVAAISSRGGSTYYADSVKGRFTISRDNAKNTVYLQMNSLKPEDTAVYYCNAYGSTSQMDYWGQGTQVTVSS",
    "polyreactivity (PSR sort gate)": "high polyreactivity"
  },
  {
    "sequence input": "QVQLVESGGGLVQAGGSLRLSCAASGNNFGNNAMGWYRQAPGKERELVAAISSSGTSTYYADSVKGRFTISRDNAKNTVYLQMNSLKPEDTSVYYCNADPLPYDGYYDYDYWGQGTEVTVSS",
    "polyreactivity (PSR sort gate)": "low polyreactivity"
  }
]
